# procedure.text: NCI Yeast Anticancer Drug Screen. Data for the cln2 rad14 strain (AID 165);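 also: 0% = growth equal to vehicle treated cultures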
# condition: S. cerevisiae cln2 rad14 strain, at 50.0 µM, stronger effect = higher value
About 79,000 compounds went through this panel and 15% of them were active in at least one assay; those are over-represented in the sample as a whole.

compound	growth inhibition / %
C[N+](C)(C)CC1CCCC(C[N+](C)(C)C)C1=O (stereo unspecified)	25.5
Nc1ccc(N=Nc2ccccc2)cc1	3.25
CCCCCCCC1(c2ccc(N)cc2)CCC(=O)NC1=O (stereo unspecified)	33.8
[Ni+2].[O-][Cl+3]([O-])([O-])O.c1ccc([PH+](CC[PH+](c2ccccc2)c2ccccc2)c2ccccc2)cc1.c1ccc([PH+](CC[PH+](c2ccccc2)c2ccccc2)c2ccccc2)cc1	9.05
COC1OC(COC(C)=O)C(OC(C)=O)C(OC(C)=O)[CH]1[Hg][I] (stereo unspecified)	98.9
O=[N+]([O-])c1cc(S(=O)(=O)F)ccc1Cl	92.4
C[n+]1ccccc1-c1nc(-c2cccc[n+]2C)nc(-c2cccc[n+]2C)n1	21.9
CC(CN1CCCCCCC1)C(C#N)(c1ccccc1)c1ccccc1 (stereo unspecified)	84.1
c1ccc(P(CCP(c2ccccc2)c2ccccc2)CCP(c2ccccc2)c2ccccc2)cc1	5.95
CCOP(=O)(CP(=O)(OCC)OCC)OCC.[Cl][Sn]([Cl])([c]1ccccc1)[c]1ccccc1	98.1
O=P(Nc1cccc(Cl)c1)(Oc1ccccc1)N(CCCl)CCCl (stereo unspecified)	89.8

----------
# procedure.text: NCI Yeast Anticancer Drug Screen. Data for the mec2-1 strain (AID 157)
# condition: S. cerevisiae mec2-1 strain, at 5.0 µM (retest, dose inferred, filed as 0.5)
This is part of a sample that, as a whole, favours compounds with a hit. Of some 79,000 tested, about 15% had one in any assay. Active and inactive are the calls of the source. No stated cut-off is given here; in the data, active means growth inhibition above about 70%; inactive means the rest.
Outcomes: active, inactive

In [3]: df
Out[3]:
                                    compound  label_value
 0  O=[N+]([O-])c1ccc(C=Cc2ccccc2)cc1.[C-]#[O+].[C-]#[O+].[C-]#[O+].[Cr]     inactive
 1  CCN(CCCl)c1cc(CN(C)C)cc(NC(=O)c2ccc(C(=O)Nc3cc(CN(C)C)cc(N(CC)CCCl)c3)cc2)c1     inactive
 2                      [O-][n+]1onc2ccccc21     inactive
 3  [Br][Cd][Br].c1ccc([PH+](c2ccccc2)c2ccccc2)cc1.c1ccc([PH+](c2ccccc2)c2ccccc2)cc1     inactive
 4  ClCCN(CCCl)c1ccc(C=NCCCCN=Cc2ccc(N(CCCl)CCCl)cc2)cc1     inactive
 5  Nc1nc(N)c(-c2ccc(Cl)c(Cl)c2)c(CCc2ccc(CNC(=O)c3cc(S(=O)(=O)F)ccc3Cl)cc2)n1     inactive
 6              O=C(O)CCCOc1cc(Cl)c(Cl)cc1Cl     inactive
 7  COc1cc(C2c3cc4c(cc3[C@@H](Nc3ccc(N)cc3)C3COC(=O)[C@H]23)OCO4)cc(OC)c1O (some centres not stated)       active
 8  CCCCCCCC/C=C\CCCCCCCCN1CC(C(=O)[O][Pb]([CH2]C)([CH2]C)[CH2]C)CC1=O (configuration not stated)     inactive
 9  CCCN(CCC)c1c([N+](=O)[O-])cc(S(N)(=O)=O)cc1[N+](=O)[O-]     inactive
10     Oc1c(Cl)cc(-c2cc(Cl)c(O)c(Cl)c2)cc1Cl       active
11  CCOC(=O)C1=C(C)NC(=O)NC1c1ccc(N(CCCl)CCCl)cc1Cl (configuration not stated)     inactive
12  CC(C)=[CH][Sb]([Br])([CH]=C(C)C)([CH]=C(C)C)[c]1ccccc1     inactive
13               O=[N+]([O-])c1ccc(O)c(Cl)c1     inactive
14         CN(C)C(=O)Oc1c(Cl)cc(Cl)c(Cl)c1Cl     inactive
15       CC1=C[n+]2cc(C)ccc2Sc2c1ccc1ccccc21     inactive
16  C/C(=N\N=C(N)N)C(CN1CCOCC1)C(c1ccccc1)c1c(O)c2ccccc2oc1=O (configuration not stated)     inactive
17  C[C@]12CC[C@H]3[C@@H](CCC4=CC(=O)CC[C@@H]43)[C@@H]1CC[C@@H]2OC1(O)C(=O)c2ccccc2C1=O     inactive
18                            Br[Se]c1ccccn1     inactive
19                CN(N=O)C(=O)NNC(=O)N(C)N=O     inactive
20  CC(Cl)CNC(C)C (configuration not stated)     inactive
21            CCC(C)(c1ccc(O)cc1)c1ccc(O)cc1     inactive

----------
# procedure.text: NCI Yeast Anticancer Drug Screen. Data for the sgs1 mgt1 strain (AID 161);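 also: 0% = growth of cultures given vehicle only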
# condition: S. cerevisiae sgs1 mgt1 strain, at 50.0 µM (retest, dose inferred, filed as 5.0)
This is part of a sample that, as a whole, favours compounds with a hit. Of some 79,000 tested, about 15% had one in any assay. Calls of active or inactive are those of the source. Rule as the data show it: active = growth inhibition above about 70%; inactive = the rest.
Outcomes: True (active), False (inactive)

                                   molecule  label_value
0  ClCCN(CCCl)c1ccc(CNCCCNCc2ccc(N(CCCl)CCCl)cc2)cc1        False
1  C(=C/P(c1ccccc1)c1ccccc1)/P(c1ccccc1)c1ccccc1.C(=CP(c1ccccc1)c1ccccc1)P(c1ccccc1)c1ccccc1.[Pt]         True
2            CCCCCCCCCCCCCCCC[N+](C)(C)CCBr         True
3  CC(Cc1ccccc1)N(C)Cc1ccc(-c2ccccc2)o1 (stereo not given)         True
4                       ClCc1nc2ccccc2[nH]1         True
5  CCC[CH2][Sn]([Cl])([CH2]C)[O][Sn]([Cl])([CH2]C)[CH2]CCC (stereo not given)         True
6         CC/C(=C\c1ccc(Cl)cc1)[N+](=O)[O-]         True
7  CC1CN1C1=C(Cl)C(=O)C(N2CC2C)=C(Cl)C1=O (stereo not given)         True
8               O=c1c2ccccc2[se]n1-c1cccnc1        False
9  C/C(=N\Nc1ccccn1)C1CC[N-]C2C(O)CCCC12.C/C(=N\Nc1ccccn1)C1CC[N-]C2C(O)CCCC12.[Cu+2] (stereo not given)         True

----------
# procedure.text: NCI Yeast Anticancer Drug Screen. Data for the rad50 strain (AID 155);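 also: 0% = growth of vehicle-only cultures of the same strain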
# condition: S. cerevisiae rad50 strain growth inhibition; at 50.0 µM
About 79,000 compounds went through this panel and 15% of them were active in at least one assay; those are over-represented in the sample as a whole. Activity calls are given as the source filed them. Cut-off read from the data, not from the text of the source: active = growth inhibition above about 70%; inactive = the rest.
Outcomes: 1.0 (active), 0.0 (inactive)

                                    compound  label_value
 0  COc1cc([C@@H]2c3cc4c(cc3C[C@@H]3COC(=O)C32)OCO4)cc(OC)c1O (stereo not given in full)          1.0
 1  CNCC(O)c1ccc(O)c(O)c1.[Pt].c1ccc([PH+](c2ccccc2)c2ccccc2)cc1.c1ccc([PH+](c2ccccc2)c2ccccc2)cc1          1.0
 2  Cc1cc[n+](C2=C(Nc3cccc(C(F)(F)F)c3)C(=O)c3ccccc3C2=O)cc1          1.0
 3  CN(C)c1ccc(C2N(Cc3ccc(N(CCCl)CCCl)cc3Cl)CCCN2Cc2ccc(N(CCCl)CCCl)cc2Cl)cc1          1.0
 4  C[n+]1c(/C=C/c2ccc(O)c(O)c2)[se]c2ccccc21          1.0
 5  CCC[N+](CCC)(CCC)CCC.N#CN=C([SH2+])[SH2+].N#CN=C([SH2+])[SH2+].[Pt+2]          1.0
 6  COc1ccc(NP(=S)(Nc2ccc(OC)cc2)c2ccccc2)cc1          0.0
 7  O=C(O)C1C2c3ccccc3C(c3ccccc32)C1Br (stereo not given)          0.0
 8  CC[C@]1(O)CC(OC2CC(N(C)C)C(O)C(C)O2)c2c(cc3c(c2O)C(=O)c2c(O)cccc2C3=O)[C@@H]1C(=O)OC (stereo not given in full)          1.0
 9  O=c1oc2ccccc2c(O)c1C(C/C(CCN1CCCC1)=N\Nc1ccccc1)c1ccccc1 (stereo not given)          1.0
10  CC(C)(C)C1=CC(=C/C=C/c2cc(C(C)(C)C)[o+]c(C(C)(C)C)c2)C=C(C(C)(C)C)O1          0.0
11                                     CSCCl          1.0
12       COc1cc(OC)c(OC)cc1/C=C/[N+](=O)[O-]          1.0
13  COC(COC(N)=O)C1=C(N2CC2)C(=O)C(C)=C(N2CC2)C1=O (stereo not given)          0.0
14                           O=c1ssc(Cl)c1Cl          1.0
15  O=[C-]CCCCCC[C-]=O.[C-]#[O+].[C-]#[O+].[C-]#[O+].[C-]#[O+].[Fe+6].[Fe+6].[c-]1[c-][c-][cH-][c-]1.[c-]1[c-][c-][cH-][c-]1          1.0
16                          Oc1ccc2ccccc2c1O          0.0
17  O=C(c1ccccc1)C1C(c2ccccc2[N+](=O)[O-])N1C1CCCCC1 (stereo not given)          1.0
18                        O=C(CBr)OCc1ccccc1          1.0
19  CC[C@H](C)c1occ2c(O)c(C(=O)O)c(=O)cc-2c1C          0.0
